# key: entry, value: z-score
assay: CREB reporter modulators without forskolin, primary screen, cell-based, PC12, CRE-LacZ reporter, unstimulated (AID 1145); details: no forskolin, luminescence, 4.5 h, higher = more signal, called active from +8 up or from −8 down
Activity calls are given as the source filed them.

MOLECULE	z-score
CCCC=C(CCC)[C@@H](NP(=O)(c1ccccc1)c1ccccc1)c1ccc(C(F)(F)F)cc1	0.0041 (inactive)
COCCCNC(=O)[C@]1(CCC(=O)OC(C)(C)C)N=C(c2ccc(OCCCO)cc2)O[C@@H]1c1ccccc1	0.699 (inactive)
COc1ccc(C(O)C2C=CC3C(=O)N(c4ccccc4)C(=O)C3N2Nc2ccc(C#N)cc2)c2ccccc12 (centres undefined)	-0.143 (inactive)
O=C(CS)NCCCCCCNC(=O)[C@@H]1C[C@@H]2C(=O)N3CCC[C@H]3C(=O)N2[C@@H]1c1cccc(OCCO)c1	-1.35 (inactive)

* * *

assay: MM1S myeloma cell viability, profiling panel, resazurin fluorescence, basal, 24 h, PK04 Diversity Set (AID 1174); settings: higher = more signal, called active from +8 up or from −8 down;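 also: MM1S multiple myeloma cell line; test concentration not given here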
Given measured z-score, output MET if it is greater than or equal to -0.5 and NOT MET if not.

COMPOUND	ASSIGNED_CATEGORY
O=C1O[C@@H](c2ccccc2)[C@@H](c2ccccc2)N2[C@@H](c3ccccc3OCCO)[C@]3(C(=O)Nc4ccccc43)[C@@H](C(=O)NC[C@H](O)c3ccccc3)[C@H]12	NOT MET
CN(C)CCCN1C(=O)[C@@]2(c3ccc([N+](=O)[O-])cc3)CC(=O)N(CC34CC5CC(CC(C5)C3)C4)[C@@H]2c2ccc(CO)cc21	NOT MET
O=C1C2C=CC(C(O)c3cc(C(F)(F)F)cc(C(F)(F)F)c3)N(Nc3ccc([N+](=O)[O-])cc3)C2C(=O)N1c1ccccc1 (stereo not drawn)	NOT MET
CC(C)CN1C(=O)[C@@]2(c3ccc([N+](=O)[O-])cc3)CC(=O)N(CC34CC5CC(CC(C5)C3)C4)[C@@H]2c2ccc(CO)cc21	MET
C=C[C@@H](COC(C)=O)NS(=O)(=O)c1ccc(Br)cc1	NOT MET
COC(=O)c1c(CC[C@@H](CO)NC(=O)N[C@H](Cn2cc(-c3ccccc3C)nn2)C(C)C)oc(C(C)=O)c1C(=O)OC	MET
Cc1ccc(S[C@]2(C(=O)NC3CC3)CC(=O)N(Cc3ccccc3Cl)[C@@H]2c2ccc(CO)cc2I)cc1	NOT MET
O=C1C[C@]2(c3ccc([N+](=O)[O-])cc3)C(=O)N(Cc3ccccc3)c3cc(CO)ccc3[C@H]2N1CC12CC3CC(CC(C3)C1)C2	MET
CC(C)N1CC=CC23O[C@@H]4C=CCOC(=O)[C@@H]4[C@H]2C(=O)N(C(C)CO)[C@@H]3C1=O (stereo partly drawn)	MET
COC(=O)[C@@]1(Cc2ccc(OC)cc2)[C@H]2c3cc(C(=O)N(C)C)n(Cc4ccccc4)c3C[C@H]2CN1C(=O)c1ccccc1	NOT MET
C=C(CCCC)C(=O)CC[C@@H](OC(=O)c1ccccc1-c1ccccc1C(=O)O)c1cccc(OCCO)c1	MET
COC(=O)C1(Cc2ccccc2)C=C2C(=C(c3ccccc3)C(=O)C2C)CN1 (stereo not drawn)	NOT MET
COc1ccc([Si](C)(C)[C@H]2[C@H](CCn3cc(CCO)nn3)O[C@@]3(C(=O)N(Cc4ccc(N5C(=O)c6cccc7cccc5c67)cc4)c4ccccc43)[C@@H]2C)cc1	NOT MET
O=C1O[C@@H](c2ccccc2)[C@@H](c2ccccc2)N2[C@@H](c3ccccc3OCCO)[C@]3(C(=O)Nc4ccc(C#CC5=CCCCC5)cc43)[C@@H](C(=O)NC[C@H](O)c3ccccc3)[C@H]12	NOT MET
O=C1NCC(=O)N2[C@@H]1C[C@@H](C(=O)O)[C@H]2c1ccc(O)cc1	MET
C[C@@H](OCc1ccccc1)C1NC(=O)[C@@]23C(=O)N[C@@H](Cc4ccccc4)C2[C@H](C)[C@@]2(C)O[C@H]2C3/C=C/C/C=C\CNC(=O)CNC1=O (stereo partly drawn)	NOT MET
CC(C)(C)OC(=O)CC[C@]1(C(=O)O)N=C(c2ccc(OCCCO)cc2)O[C@H]1c1ccccc1CN=[N+]=[N-]	MET
C=CC1c2cc(O)c(OC)cc2CCN1Cc1sc2ccccc2c1Cl (stereo not drawn)	MET
COc1cc(CO)cc(I)c1O[C@H]1C=C(C(=O)NCCO)C[C@@H](N(Cc2ccc(F)cc2)C(=O)C2CCCO2)[C@@H]1O (stereo partly drawn)	MET
COc1ccc(NC(=O)O[C@H]2[C@H](OC(=O)Nc3ccc4c(c3)OCO4)[C@@H](OC(=O)Nc3ccc4c(c3)OCO4)[C@@H](OC)O[C@@H]2CO)cc1	NOT MET
C=CCOC(=O)[C@H]1[C@@H]2C(=O)O[C@@H](c3ccccc3)[C@@H](c3ccccc3)N2[C@@H](c2ccc(OCCOC(=O)[C@H]3C[C@H]4C(=O)N[C@@H](CCCC[N+](C)(C)C)C(=O)N4[C@H]3c3cccc(OCCO)c3)cc2)[C@]12C(=O)Nc1ccc(I)cc12	MET
CC(=O)N1Cc2ccccc2C[C@]2(N=C(c3ccc(OCCCO)cc3)O[C@@H]2c2ccccc2)C1=O	NOT MET
COCCOC(=O)N1C(=O)[C@@]2(c3ccccc31)[C@H](c1ccc(OCCO)cc1)N1[C@H](c3ccccc3)[C@H](c3ccccc3)OC(=O)[C@H]1[C@@H]2C(=O)Nc1nc2ccccc2s1	NOT MET
CCCN1C(=O)[C@]2(Cc3ccccc3)N=C(c3ccc(OCCCO)cc3)O[C@@H]2c2ccccc21	NOT MET
CC=CC(O)C1C=CC2C(=O)N(C)C(=O)C2N1N1CCCCC1 (stereo not drawn)	NOT MET
[N-]=[N+]=Nc1ccccc1C[C@]1(C(=O)NCc2ccccc2)N=C(c2ccc(OCCCO)cc2)O[C@H]1c1ccccc1	NOT MET
Cc1ccc(S[C@]2(C(=O)NCC(C)C)CC(=O)N(Cc3ccccc3Cl)[C@@H]2c2ccc(CO)cc2I)cc1	NOT MET
O=C(CCCCCCC(=O)Nc1ccccc1)N/N=C/c1ccccc1	MET

* * *

Overview of reported z-score across a group of molecules:
assay: FRG1 promoter luciferase signal modulators, primary screen, FRG1 inhibition for FSHD, cell-based, C2C12 myotubes, firefly/Renilla luciferase, luminescence (AID 1084); conditions: higher = more signal, called active from +8 up or from −8 down

MOLECULE	z-score
CN(C)CCCCNC(=O)[C@H]1C[C@H]2C(=O)N3CCC[C@H]3C(=O)N2[C@H]1c1ccc(O)cc1	4.64
CN(C)C(=O)[C@@]1(Cc2ccccc2N=[N+]=[N-])COC(c2ccc(OCCCO)cc2)=N1	-0.927
C=C(COC)/C(=C/C[C@@H](OC(=O)c1ccncc1)c1cccc(OCCO)c1)c1cnc2ccccc2c1	0.589
O=C1O[C@@H](c2ccccc2)[C@@H](c2ccccc2)N2[C@@H](c3ccc(O)cc3)[C@]3(C(=O)Nc4ccc(C#CCCO)cc43)[C@@H](C(=O)Nc3nc4ccccc4s3)[C@H]12	0.213
COC(=O)c1c(CC[C@@H](CO)NC(=O)N[C@H](Cn2cc(-c3ccccc3C)nn2)C(C)C)oc(C(C)=O)c1C(=O)OC	0.87
CC1CC/C=C\[C@H]2OC34C=CCN(c5ccc6ccccc6c5)C(=O)[C@H]3N(C(CO)C(C)C)C(=O)[C@@H]4C2C(=O)O1 (some centres not stated)	0.718
O=C1NC(=O)C2C1C=CC(C(O)c1ccc3c(c1)OCO3)N2Nc1ccccn1 (configuration not stated)	-0.653

* * *

test system: Inhibin beta A chain (activin A); assay: INHBA (activin A) binders on microarrays, primary screen, biochemical, small-molecule microarray, 635 nm fluorescence scan (AID 1107); conditions: small-molecule microarray binding, higher = more signal;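 also: mouse activin A protein probed at 4.33 µg/mL on printed slides; score merges bound-protein fluorescence near 667 nm with spot signal-to-noise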

MOLECULE	STUDY_TARGET	composite z-score
COCCOC(=O)N1C(=O)[C@@]2(c3cc(C#Cc4ccc(OC)cc4)ccc31)[C@H](C(=O)N1CCCCCCC1)[C@H]1C(=O)O[C@H](c3ccccc3)[C@H](c3ccccc3)N1[C@@H]2c1ccc(O)cc1	Inhibin beta A chain (activin A)	1.35
COCCOC(=O)N1C(=O)[C@@]2(c3cc(C#Cc4ccc(OC)cc4)ccc31)[C@H](C(=O)NC[C@H](O)c1ccccc1)[C@H]1C(=O)O[C@H](c3ccccc3)[C@H](c3ccccc3)N1[C@@H]2c1ccc(O)cc1	Inhibin beta A chain (activin A)	0.033
COCCOC(=O)N1C(=O)[C@@]2(c3cc(C#CC4(O)CCCCCC4)ccc31)[C@H](C(N)=O)[C@H]1C(=O)O[C@H](c3ccccc3)[C@H](c3ccccc3)N1[C@@H]2c1ccccc1OCCO	Inhibin beta A chain (activin A)	-0.505
COCCOC(=O)N1C(=O)[C@@]2(c3cc(C#CC4=CCCCC4)ccc31)[C@H](c1ccc(O)cc1)N1[C@H](c3ccccc3)[C@H](c3ccccc3)OC(=O)[C@H]1[C@@H]2C(=O)Nc1nc2ccccc2s1	Inhibin beta A chain (activin A)	0.248
Cc1ccc(S[C@]2(C(=O)NC(C)C)CC(=O)N(Cc3ccccc3C(F)(F)F)[C@@H]2c2ccc(CO)cc2I)cc1	Inhibin beta A chain (activin A)	0.889
O=C1NC(=O)C2C1C=CC(C(O)c1ccc3c(c1)OCO3)N2Nc1ccccn1 (stereo unspecified)	Inhibin beta A chain (activin A)	1.64
